- TARGET_OR_SYSTEM: T1, ProQ NTD (FinO domain) (Escherichia coli, UniProt P45577 1-130)
- T1 sequence: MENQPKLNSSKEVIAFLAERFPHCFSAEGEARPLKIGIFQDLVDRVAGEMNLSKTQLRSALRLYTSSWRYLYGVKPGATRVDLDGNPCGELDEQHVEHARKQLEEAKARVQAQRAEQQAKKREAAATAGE
- ASSAY_INFO: EMSA
pKd: −log10 of the molar value.
Decision: pKd compared against 8; not below it gives YES, below it gives NO.

{"BINDER": "malM-3'-AtoU (structured_RNA) RNA: GCUUUAUCAGCAGUGUAAAAGGCAAGGGGUAAUUACGCCCCACAGUGCUGAUUUUGCUUCUUCUGGUGCGUCUCCUGGCGCACCUUUUUUU", "ANSWER_LABEL": "YES"}
{"BINDER": "malM-3'-4U (structured_RNA) RNA: GCUUUAUCAGCAGUGUAAAAGGCAAGGGGUAAUUACGCCCCACAGUGCUGAUUUUGCAACAACUGGUGCGUCUCCUGGCGCACCUUUU", "ANSWER_LABEL": "NO"}
{"BINDER": "hupB-3'-RtoU (structured_RNA) RNA: GGUAAACUAAGCGUUGUCCCCAGUGGGGAUGUGACGAAGUUCUUUGGCGCAUCUACUGAUGUGCCUUUUUU", "ANSWER_LABEL": "NO"}
{"BINDER": "cspE-3' (structured_RNA) RNA: GUAAGAUACGUCAGCAAGAAUUCAAAACCCGCUUAAUCAGCGGGUUUUUUUU", "ANSWER_LABEL": "YES"}
{"BINDER": "infA-3'-AtoU (structured_RNA) RNA: GUCGCUGAUUGUUUUACCGCCUGAUGGGCGAAGAGAAAGAACGAGUUUUUGGUCGGUUUAACCGGCCUUUUUAU", "ANSWER_LABEL": "NO"}
{"BINDER": "gapA-3'-AtoU (structured_RNA) RNA: GGACCUGAUCGCUCACAUCUCCAAAUAAGUUGAGAUGACACUGUGAUCUUUUUUGAGCGACUUCGGUCGCUCUUUUUUUU", "ANSWER_LABEL": "NO"}
